TEST DESCRIPTION: self-splicing fitness, log relative to wild type (ln ratio); higher = more splicing; Tetrahymena group I intron in knt gene, E. coli kanamycin selection, DiMSum; sequences stand for … in CUCUCU…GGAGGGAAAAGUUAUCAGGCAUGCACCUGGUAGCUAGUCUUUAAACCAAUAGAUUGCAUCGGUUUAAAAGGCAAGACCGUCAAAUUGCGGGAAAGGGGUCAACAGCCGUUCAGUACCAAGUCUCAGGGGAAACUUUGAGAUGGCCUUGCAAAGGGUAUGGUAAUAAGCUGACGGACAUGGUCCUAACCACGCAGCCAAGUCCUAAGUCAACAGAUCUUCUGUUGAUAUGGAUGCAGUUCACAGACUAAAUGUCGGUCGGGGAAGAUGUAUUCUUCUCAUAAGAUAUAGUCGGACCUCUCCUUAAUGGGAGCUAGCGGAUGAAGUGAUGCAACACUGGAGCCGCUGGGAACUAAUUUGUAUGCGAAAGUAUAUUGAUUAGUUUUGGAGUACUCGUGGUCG;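 note: selection with 25 µg/mL kanamycin versus none on LB agar overnight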
SETTINGS: 37 °C
This section presents sequences with their documented self-splicing fitness (ln) values.
Keep the answer to the number alone.

As a guide, the following entries are already answered.
# input Look up self-splicing fitness (ln): `ACGGAGCAAUAUUACGGGCU`
# output -2.43

# input Look up self-splicing fitness (ln): `UAGUAGCAAUAUUACGCUAG`
# output 0.812

# input Look up self-splicing fitness (ln): `GUGAAGCAAUAUUACGUGAU`
# output -1.03

# input Look up self-splicing fitness (ln): `ACGGAGCAAUAUUACGUUCU`
# output -2.52

---
# input Look up self-splicing fitness (ln): `AUAUAGCAAUAUUACGCUUC`
# output -2.86

# input Look up self-splicing fitness (ln): `UAACAGCAAUAUUACGACAC`
# output -0.676

# input Look up self-splicing fitness (ln): `CAGGAGCAAUAUUACGUAGG`
# output 0.172

# input Look up self-splicing fitness (ln): `CACUAGCAAUAUUACGGUCG`
# output 0.007

# input Look up self-splicing fitness (ln): `AUGGAGCAAUAUUACGGGAC`
# output -2.7

# input Look up self-splicing fitness (ln): `GUUAAGCAAUAUUACGGAAC`
# output -1.43

====

TEST DESCRIPTION: self-splicing fitness, log relative to wild type (ln ratio); higher = more splicing; Tetrahymena group I intron in knt gene, E. coli kanamycin selection, DiMSum; sequences stand for … in CUCUCU…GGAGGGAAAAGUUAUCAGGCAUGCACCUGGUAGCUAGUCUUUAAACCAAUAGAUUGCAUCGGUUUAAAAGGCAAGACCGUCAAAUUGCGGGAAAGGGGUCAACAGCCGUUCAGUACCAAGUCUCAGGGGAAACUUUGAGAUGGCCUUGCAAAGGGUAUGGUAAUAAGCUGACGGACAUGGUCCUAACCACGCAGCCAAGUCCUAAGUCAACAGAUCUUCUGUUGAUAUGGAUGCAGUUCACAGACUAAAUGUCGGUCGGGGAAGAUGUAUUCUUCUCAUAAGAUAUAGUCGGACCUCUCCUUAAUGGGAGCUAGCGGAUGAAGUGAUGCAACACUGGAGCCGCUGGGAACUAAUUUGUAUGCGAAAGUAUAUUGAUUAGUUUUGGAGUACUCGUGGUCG
SETTINGS: 37 °C
self-splicing fitness (ln) of -2 or higher: YES. Under -2: NO.

The examples below pair each entry with its known result.
# input Reported self-splicing fitness (ln) at or above -2? `UCGAAGCAAUAUUACGAAAA`
# output YES

# input Reported self-splicing fitness (ln) at or above -2? `CUCAAGCAAUAUUACGAUAU`
# output YES

# input Reported self-splicing fitness (ln) at or above -2? `AAAAAGCAAUAUUACGCUGG`
# output YES

# input Reported self-splicing fitness (ln) at or above -2? `GGCAAGCAAUAUUACGCAAA`
# output YES

---
# input Reported self-splicing fitness (ln) at or above -2? `UGGGAGCAAUAUUACGACCU`
# output YES

# input Reported self-splicing fitness (ln) at or above -2? `AUUUAGCAAUAUUACGUCGC`
# output NO

# input Reported self-splicing fitness (ln) at or above -2? `CGCAAGCAAUAUUACGAAAU`
# output YES

# input Reported self-splicing fitness (ln) at or above -2? `GAAAAGCAAUAUUACGAUUA`
# output YES

# input Reported self-splicing fitness (ln) at or above -2? `GACUAGCAAUAUUACGGGUC`
# output NO

# input Reported self-splicing fitness (ln) at or above -2? `CAGAAGCAAUAUUACGUUGC`
# output NO

====

TEST DESCRIPTION: self-splicing fitness, log relative to wild type (ln ratio); higher = more splicing; Tetrahymena group I intron in knt gene, E. coli kanamycin selection, DiMSum; sequences stand for … in CUCUCU…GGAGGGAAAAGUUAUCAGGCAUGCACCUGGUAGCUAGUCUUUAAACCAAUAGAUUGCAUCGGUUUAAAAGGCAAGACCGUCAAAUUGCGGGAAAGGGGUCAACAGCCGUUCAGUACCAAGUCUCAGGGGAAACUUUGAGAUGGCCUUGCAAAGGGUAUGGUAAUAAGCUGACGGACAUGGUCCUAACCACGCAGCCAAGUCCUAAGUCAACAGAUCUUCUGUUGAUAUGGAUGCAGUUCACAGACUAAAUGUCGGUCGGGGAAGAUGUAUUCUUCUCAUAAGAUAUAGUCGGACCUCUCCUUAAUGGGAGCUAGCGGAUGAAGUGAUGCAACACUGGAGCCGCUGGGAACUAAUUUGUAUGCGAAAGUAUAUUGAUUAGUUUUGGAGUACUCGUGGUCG
SETTINGS: 30 °C
self-splicing fitness (ln) of -2 or higher: Satisfied. Under -2: Not satisfied.

The examples below pair each entry with its known result.
# input Reported self-splicing fitness (ln) at or above -2? `GAAAAGCAAUAUUACGAUAU`
# output Satisfied

# input Reported self-splicing fitness (ln) at or above -2? `AUAGAGCAAUAUUACGAGCA`
# output Not satisfied

# input Reported self-splicing fitness (ln) at or above -2? `GUAUAGCAAUAUUACGUUGG`
# output Not satisfied

---
# input Reported self-splicing fitness (ln) at or above -2? `CAUCAGCAAUAUUACGCUAG`
# output Satisfied

# input Reported self-splicing fitness (ln) at or above -2? `GUUAAGCAAUAUUACGUUCG`
# output Satisfied

# input Reported self-splicing fitness (ln) at or above -2? `AGGGAGCAAUAUUACGGAAA`
# output Not satisfied

====

TEST DESCRIPTION: self-splicing fitness, log relative to wild type (ln ratio); higher = more splicing; Tetrahymena group I intron in knt gene, E. coli kanamycin selection, DiMSum; sequences stand for … in CUCUCU…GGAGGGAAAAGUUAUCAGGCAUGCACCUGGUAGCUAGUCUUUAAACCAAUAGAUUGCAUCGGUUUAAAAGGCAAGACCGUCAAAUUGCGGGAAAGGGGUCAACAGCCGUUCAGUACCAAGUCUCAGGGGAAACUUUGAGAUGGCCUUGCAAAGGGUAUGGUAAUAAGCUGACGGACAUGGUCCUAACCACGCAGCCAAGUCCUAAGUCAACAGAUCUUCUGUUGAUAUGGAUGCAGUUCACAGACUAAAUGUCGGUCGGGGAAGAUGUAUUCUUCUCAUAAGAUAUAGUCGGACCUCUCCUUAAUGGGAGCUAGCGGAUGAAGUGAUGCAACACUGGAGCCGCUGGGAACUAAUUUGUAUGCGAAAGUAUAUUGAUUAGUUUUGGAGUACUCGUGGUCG
SETTINGS: 30 °C
self-splicing fitness (ln) of -3 or higher: 1 (yes). Under -3: 0 (no).

The examples below pair each entry with its known result.
# input Reported self-splicing fitness (ln) at or above -3? `GAGCAGCAAUAUUACGCCUG`
# output 1 (yes)

# input Reported self-splicing fitness (ln) at or above -3? `AAUGAGCAAUAUUACGAGUC`
# output 0 (no)

# input Reported self-splicing fitness (ln) at or above -3? `AUAUAGCAAUAUUACGACAU`
# output 1 (yes)

---
# input Reported self-splicing fitness (ln) at or above -3? `ACGAAGCAAUAUUACGCUUC`
# output 0 (no)

# input Reported self-splicing fitness (ln) at or above -3? `UGCAAGCAAUAUUACGACGC`
# output 1 (yes)

# input Reported self-splicing fitness (ln) at or above -3? `AUACAGCAAUAUUACGUUGU`
# output 1 (yes)

====

This section presents sequences with their documented self-splicing fitness (ln) values.
TEST DESCRIPTION: self-splicing fitness, log relative to wild type (ln ratio); higher = more splicing; Tetrahymena group I intron in knt gene, E. coli kanamycin selection, DiMSum; sequences stand for … in CUCUCU…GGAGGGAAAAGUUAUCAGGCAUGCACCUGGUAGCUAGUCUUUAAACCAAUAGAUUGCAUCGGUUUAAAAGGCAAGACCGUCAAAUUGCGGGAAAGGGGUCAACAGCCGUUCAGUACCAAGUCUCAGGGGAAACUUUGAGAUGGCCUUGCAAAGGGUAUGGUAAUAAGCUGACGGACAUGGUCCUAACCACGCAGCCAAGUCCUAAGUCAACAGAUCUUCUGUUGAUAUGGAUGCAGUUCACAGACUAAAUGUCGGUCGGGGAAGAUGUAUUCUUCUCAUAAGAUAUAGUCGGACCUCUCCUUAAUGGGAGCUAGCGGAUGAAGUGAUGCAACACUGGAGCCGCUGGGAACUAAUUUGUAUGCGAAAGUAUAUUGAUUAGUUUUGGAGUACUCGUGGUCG
SETTINGS: 37 °C
Keep the answer to the number alone.

# input Look up self-splicing fitness (ln): `AAAGAGCAAUAUUACGUCAA`
# output -2.61

# input Look up self-splicing fitness (ln): `GCUGAGCAAUAUUACGUCUA`
# output -1.06

# input Look up self-splicing fitness (ln): `UGGAAGCAAUAUUACGGACC`
# output -0.372

# input Look up self-splicing fitness (ln): `UGGUAGCAAUAUUACGGUGG`
# output -1.94

# input Look up self-splicing fitness (ln): `GCGAAGCAAUAUUACGGCAG`
# output -2.92

Moving on to another sequence below.
# input Look up self-splicing fitness (ln): `AUUAAGCAAUAUUACGUCAA`
# output -0.766
